Target: USP30 (Homo sapiens (Human), UniProt Q70CQ3)
Sequence (Q70CQ3 57-517): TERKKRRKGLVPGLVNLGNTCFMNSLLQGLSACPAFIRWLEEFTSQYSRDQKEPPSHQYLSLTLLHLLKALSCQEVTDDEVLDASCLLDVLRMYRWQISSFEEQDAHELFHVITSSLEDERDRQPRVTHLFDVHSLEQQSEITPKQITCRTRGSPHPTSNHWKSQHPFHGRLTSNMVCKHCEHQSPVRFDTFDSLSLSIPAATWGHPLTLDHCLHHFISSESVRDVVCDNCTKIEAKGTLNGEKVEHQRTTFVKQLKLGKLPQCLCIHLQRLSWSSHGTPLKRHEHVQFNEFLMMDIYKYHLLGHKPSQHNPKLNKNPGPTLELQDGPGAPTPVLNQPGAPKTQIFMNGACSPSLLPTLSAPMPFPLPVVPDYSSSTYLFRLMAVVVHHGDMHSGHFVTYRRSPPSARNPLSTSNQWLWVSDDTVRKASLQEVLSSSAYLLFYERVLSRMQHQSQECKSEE
Test: USP30 biochemical IC50 assay
Settings: fluorescence polarisation, TAMRA labelled peptide linked to ubiquitin; 30 min pre-incubation, 2 hr read; read-out: IC50 range
IC50 for assorted compounds
OUTCOME_MEASURE: IC50

>>> result_value("N#CN1CCC(CNc2nccc3ccccc23)C1 (centres unmarked) [Example 3]")
"1000 to 10000 nM"
>>> result_value("N#CN1CCC(CNC(=O)Nc2ccc(Cl)cc2Cl)C1 (centres unmarked) [Example 44]")
"100 to 1000 nM"
>>> result_value("N#CN1CCC(CNC(=O)c2ccc(S(=O)(=O)Nc3ccccc3)cc2)C1 (centres unmarked) [Example 30]")
"100 to 1000 nM"
>>> result_value("N#CN1CC[C@H](CNc2ncc3ccc(-c4cn[nH]c4)cc3n2)C1 [Example 12]")
"1000 to 10000 nM"
>>> result_value("N#CN1CCC(CNC(=O)Nc2cccc(Cl)c2)C1 (centres unmarked) [Example 41]")
"100 to 1000 nM"
>>> result_value("N#CN1CCC(CNc2cccc(-c3ccccc3)n2)C1 (centres unmarked) [Example 7]")
"1000 to 10000 nM"
>>> result_value("N#CN1CC[C@H](CNC(=O)c2nc3ccccc3[nH]2)C1 [Example 56]")
"1000 to 10000 nM"
>>> result_value("N#CN1CC[C@@H](CNc2nccc(-c3ccccc3)n2)C1 [Example 19]")
"1000 to 10000 nM"
>>> result_value("N#CN1CCC(CNc2ccc3ccccc3n2)C1 (centres unmarked) [Example 1]")
"1000 to 10000 nM"
>>> result_value("N#CN1CC[C@H](CNC(=O)c2cn(Cc3ccccc3)cn2)C1 [Example 78]")
"100 to 1000 nM"
>>> result_value("N#CN1CCC(CNC(=O)c2ccc(-c3ccncc3)cc2)C1 (centres unmarked) [Example 24]")
"100 to 1000 nM"
